test system: COLO 205; assay: NCI tumour cell line growth inhibition, 48 h
Calls of active or inactive are those of the source. Cut-off read from the data, not from the text of the source: active = GI50 up to about 1.1 µM and inactive = higher.
Output constraint: value belongs to T = active, F = inactive

// known answers, use as guide
{"columns": ["molecule", "tested.target", "assigned.class"],
 "data": [
  ["COc1ccc(O)c2c(=O)ccccc12", "COLO 205", "F"],
  ["C/C=C\\C(CC(=O)NCCC1CN(C(=O)c2ccccc2)c2ccccc21)CC(=O)OC (stereo unspecified)", "COLO 205", "F"],
  ["O=C1NC(Cc2ccccc2)C(=O)N2CCCC12 (stereo unspecified)", "COLO 205", "F"],
  ["CC(=O)N(CCN1C(=O)c2ccccc2C1=O)CCN1C(=O)c2ccccc2C1=O", "COLO 205", "F"]
]}

query: Can you look up the reported call for CC1C(c2ccccc2)OP(=O)(OC(C#N)c2ccccc2)N1C (stereo unspecified) for me?
result: F

query: Can you look up the reported call for OC1CCC(C2C3CCCCC3C3CCCCC3C2C2CCC(O)CC2)CC1 (stereo unspecified) for me?
result: F

query: Can you look up the reported call for `Cc1cc(Cl)ccc1N1C(=O)C(=O)C(c2nc3ccccc3o2)C(=O)C1=O` for me?
result: F
